Reference source: ChEMBL document CHEMBL1821590

- System: Metaphire posthuma
- EXPERIMENT_SUMMARY: Anthelmintic activity against Pheretima posthuma assessed as time taken for parasite death at 0.1% w/v
- Format: functional
OBSERVED_PROPERTY: Time (min)
Express your answer in min, writing the number without its unit.

Some compounds with recorded Time:
Return Time (reported value) for this compound: CSc1nc(-c2ccco2)c(C#N)c(=O)n1C
60.18

Return Time (reported value) for this compound: CCOC(=O)c1cnn(-c2nc(-c3ccccc3F)c(C#N)c(=O)n2C)c1N
88.45

Return Time (reported value) for this compound: CCOC(=O)c1cnn(-c2nc(-c3cccs3)c(C#N)c(=O)n2C)c1N
47.38

---
Return Time (reported value) for this compound: Cn1c(NN)nc(-c2ccco2)c(C#N)c1=O
61.58

Return Time (reported value) for this compound: CCOC(=O)c1cnn(-c2nc(-c3ccc(Cl)cc3)c(C#N)c(=O)n2C)c1N
64.72

Return Time (reported value) for this compound: COc1ccc(-c2nc(SC)n(C)c(=O)c2C#N)cc1
78.22

Return Time (reported value) for this compound: Cn1c(NN)nc(-c2cccc(O)c2O)c(C#N)c1=O
66.22
